Please go through the items and note down their PBM E-score.
# target: Stb5 (UniProt P38699)
# Sequence: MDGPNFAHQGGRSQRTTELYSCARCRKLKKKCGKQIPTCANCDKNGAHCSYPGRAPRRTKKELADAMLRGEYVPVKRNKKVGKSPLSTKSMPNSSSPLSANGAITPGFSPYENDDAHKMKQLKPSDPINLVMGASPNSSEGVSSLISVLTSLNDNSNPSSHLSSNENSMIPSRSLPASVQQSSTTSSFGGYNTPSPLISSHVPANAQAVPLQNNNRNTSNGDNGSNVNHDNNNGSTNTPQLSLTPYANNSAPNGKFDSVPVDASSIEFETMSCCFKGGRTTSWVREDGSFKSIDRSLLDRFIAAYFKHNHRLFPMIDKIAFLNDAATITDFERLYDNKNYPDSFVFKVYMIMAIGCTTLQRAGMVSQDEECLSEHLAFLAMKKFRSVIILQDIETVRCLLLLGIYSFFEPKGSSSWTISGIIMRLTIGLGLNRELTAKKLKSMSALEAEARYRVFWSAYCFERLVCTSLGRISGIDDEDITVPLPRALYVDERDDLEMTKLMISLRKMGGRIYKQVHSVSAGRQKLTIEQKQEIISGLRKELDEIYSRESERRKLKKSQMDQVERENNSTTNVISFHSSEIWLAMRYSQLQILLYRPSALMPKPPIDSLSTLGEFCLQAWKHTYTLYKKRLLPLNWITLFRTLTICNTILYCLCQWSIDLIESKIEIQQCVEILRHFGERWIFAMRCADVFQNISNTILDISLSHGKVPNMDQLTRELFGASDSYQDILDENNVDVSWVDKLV
# protocol: PBM E-score (8-mer binding enrichment) (E-score (-0.5 to 0.5)); higher = stronger / more preferred TF binding
# measurement.context: protein concentration: 200 nM; construct: GST-full length
In all, about 33,000 sequences were measured (“E-score (-0.5 to 0.5)”: median about -0.054, highest 2% from about 0.35 on). The full list was thinned out, with the highest values kept by preference.
Give bare numbers.

Guide cases for PBM E-score, answers given:
residue.codes | target | assay.metric | quantitative.result
CCCGAGCA | Stb5 (UniProt P38699) | PBM E-score | -0.166
AGCTATTA | Stb5 (UniProt P38699) | PBM E-score | -0.041
CACCGCGG | Stb5 (UniProt P38699) | PBM E-score | 0.419
AACCGCGC | Stb5 (UniProt P38699) | PBM E-score | 0.273
GACCGCGC | Stb5 (UniProt P38699) | PBM E-score | 0.246
AACAGCGA | Stb5 (UniProt P38699) | PBM E-score | 0.235

For each entry beneath this line, provide reported PBM E-score.
1. CCGCGCGC
2. AGCGGCGG
3. TACCGCGA

[0.281, 0.401, 0.324]

For each entry beneath this line, provide reported PBM E-score.
1. AACCGCGG
2. GACAGTTA
3. CGCTATTA
4. ATCGGCGG
5. CACTTGCG
6. CGCGGCGC
7. CGTGCAAA

[0.347, -0.0979, 0.357, 0.363, -0.0879, 0.318, -0.0367]

For each entry beneath this line, provide reported PBM E-score.
1. CCGCGCGG
2. TTCACCAA
3. CCCCGCGG
4. AACCGCGA

0.404
-0.0231
0.349
0.272

For each entry beneath this line, provide reported PBM E-score.
1. AGCGGCGC
2. ATCGGCGA

1. 0.363
2. 0.272

* * *

# target: Stb5 (UniProt P38699)
# Sequence: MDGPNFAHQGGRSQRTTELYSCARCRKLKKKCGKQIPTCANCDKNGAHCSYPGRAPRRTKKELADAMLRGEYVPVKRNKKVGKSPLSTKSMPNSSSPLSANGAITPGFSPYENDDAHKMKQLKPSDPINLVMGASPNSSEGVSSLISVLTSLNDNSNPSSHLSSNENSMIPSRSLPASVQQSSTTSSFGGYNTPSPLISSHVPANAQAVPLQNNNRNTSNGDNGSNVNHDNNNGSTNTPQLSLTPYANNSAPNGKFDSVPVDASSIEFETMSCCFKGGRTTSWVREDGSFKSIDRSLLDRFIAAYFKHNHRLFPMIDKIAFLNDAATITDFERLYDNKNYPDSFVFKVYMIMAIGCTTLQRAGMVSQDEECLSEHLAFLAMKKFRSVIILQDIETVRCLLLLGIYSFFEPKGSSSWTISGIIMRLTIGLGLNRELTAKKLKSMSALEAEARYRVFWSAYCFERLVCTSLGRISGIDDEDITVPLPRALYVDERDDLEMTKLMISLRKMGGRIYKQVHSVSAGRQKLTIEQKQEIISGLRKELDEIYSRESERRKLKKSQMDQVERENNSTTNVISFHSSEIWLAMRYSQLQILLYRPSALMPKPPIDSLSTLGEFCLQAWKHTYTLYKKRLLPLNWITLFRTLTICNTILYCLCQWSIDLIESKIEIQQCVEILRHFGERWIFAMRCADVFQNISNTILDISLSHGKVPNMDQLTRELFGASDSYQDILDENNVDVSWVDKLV
# protocol: PBM E-score (8-mer binding enrichment) (E-score (-0.5 to 0.5)); higher = stronger / more preferred TF binding
# measurement.context: protein concentration: 200 nM; construct: GST-full length
Whole data set: some 33,000 sequences, median “E-score (-0.5 to 0.5)” near -0.054, cut for the highest 2% near 0.35. For the sample, the highest values were picked, then their nearest neighbours and some sequences at random.
Class boundaries, taken from values of PBM E-score, are as follows: low interval = under -0.05, middle interval = from -0.05 up to 0.2, high interval = 0.2 and over

Use these answered entries as a reference point.
residue.codes | category
ACCAGGCA | low interval
CGAAGGAA | low interval
ATTGAGCC | middle interval

Class (by measured PBM E-score) for `AATGCTGT`
low interval

Class (by measured PBM E-score) for `AACGGCGC`
high interval

Class (by measured PBM E-score) for `AGGCCACC`
low interval

Class (by measured PBM E-score) for `CCAACACC`
middle interval

Class (by measured PBM E-score) for `ATAGTACC`
high interval

Class (by measured PBM E-score) for `CATGTTCA`
low interval

Class (by measured PBM E-score) for `ATAACACC`
high interval

Class (by measured PBM E-score) for `CGCAGTTA`
high interval

Class (by measured PBM E-score) for `GTGTCGGA`
high interval

Class (by measured PBM E-score) for `AGACTCCA`
low interval

Class (by measured PBM E-score) for `CACCGTAC`
high interval

Class (by measured PBM E-score) for `CTAGTACC`
high interval

Class (by measured PBM E-score) for `CGCAGTTC`
middle interval

Class (by measured PBM E-score) for `GAAGGCAA`
low interval

* * *

# target: Stb5 (UniProt P38699)
# Sequence: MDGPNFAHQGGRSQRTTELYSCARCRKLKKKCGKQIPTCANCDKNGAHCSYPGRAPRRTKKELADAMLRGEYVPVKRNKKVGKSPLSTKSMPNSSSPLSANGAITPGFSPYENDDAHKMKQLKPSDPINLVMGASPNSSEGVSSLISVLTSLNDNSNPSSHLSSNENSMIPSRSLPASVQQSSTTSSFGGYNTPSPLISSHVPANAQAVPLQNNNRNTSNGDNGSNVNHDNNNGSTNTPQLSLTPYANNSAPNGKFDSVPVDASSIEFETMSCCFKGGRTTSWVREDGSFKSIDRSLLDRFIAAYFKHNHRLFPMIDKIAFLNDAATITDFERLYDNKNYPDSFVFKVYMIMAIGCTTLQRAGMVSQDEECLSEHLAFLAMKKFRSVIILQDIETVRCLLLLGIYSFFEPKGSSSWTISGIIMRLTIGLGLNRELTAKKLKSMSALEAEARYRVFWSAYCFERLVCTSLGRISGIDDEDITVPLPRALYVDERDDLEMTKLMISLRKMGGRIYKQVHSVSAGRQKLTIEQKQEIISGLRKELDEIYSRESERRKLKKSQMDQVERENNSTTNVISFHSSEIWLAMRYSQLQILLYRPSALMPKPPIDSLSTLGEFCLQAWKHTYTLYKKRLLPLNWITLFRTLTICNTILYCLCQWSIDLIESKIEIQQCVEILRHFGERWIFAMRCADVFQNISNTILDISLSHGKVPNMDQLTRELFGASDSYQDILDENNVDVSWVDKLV
# protocol: PBM E-score (8-mer binding enrichment) (E-score (-0.5 to 0.5)); higher = stronger / more preferred TF binding
# measurement.context: protein concentration: 200 nM; construct: GST-full length
Over roughly 33,000 sequences, “E-score (-0.5 to 0.5)” has its median near -0.054; the highest 2% begin near 0.35. The sample holds the highest values, similar sequences and a random draw of the others, so the mix is not that of the screen.
Param threshold (-0.02) applies to PBM E-score; output Fulfilled when value >= threshold, Not fulfilled when value < threshold.

Use these answered entries as a reference point.
residue.codes | target | category
ACCACAGA | Stb5 (UniProt P38699) | Not fulfilled
CAAGGCTG | Stb5 (UniProt P38699) | Not fulfilled
CTTCAGTC | Stb5 (UniProt P38699) | Not fulfilled
AAATCCCA | Stb5 (UniProt P38699) | Not fulfilled
GTGGTCAA | Stb5 (UniProt P38699) | Not fulfilled

Is PBM E-score for `CGGACTAA` at or above -0.02?
Fulfilled

Is PBM E-score for `CAATCCCG` at or above -0.02?
Fulfilled

Is PBM E-score for `ACGCTGGC` at or above -0.02?
Not fulfilled

Is PBM E-score for `GGGCGCCC` at or above -0.02?
Fulfilled

Is PBM E-score for `GTCCCGAA` at or above -0.02?
Fulfilled

Is PBM E-score for `AGACCGGC` at or above -0.02?
Fulfilled

Is PBM E-score for `CCTGACCA` at or above -0.02?
Not fulfilled

Is PBM E-score for `CAATCCGG` at or above -0.02?
Fulfilled

Is PBM E-score for `GTATGGTA` at or above -0.02?
Not fulfilled
